molecular target: human transferrin receptor (hTfR) (Homo sapiens, UniProt P02786); construct: made in house; test: Evaluation of molecular interaction between transferrin receptor (hTfR) and peptide using surface plasmon resonance (SPR); assay type: binding; details: surface plasmon resonance, binding to hTfR; KD class symbol; read-out: SPR (KD value)
Sequence (P02786 89-760 limits assumed): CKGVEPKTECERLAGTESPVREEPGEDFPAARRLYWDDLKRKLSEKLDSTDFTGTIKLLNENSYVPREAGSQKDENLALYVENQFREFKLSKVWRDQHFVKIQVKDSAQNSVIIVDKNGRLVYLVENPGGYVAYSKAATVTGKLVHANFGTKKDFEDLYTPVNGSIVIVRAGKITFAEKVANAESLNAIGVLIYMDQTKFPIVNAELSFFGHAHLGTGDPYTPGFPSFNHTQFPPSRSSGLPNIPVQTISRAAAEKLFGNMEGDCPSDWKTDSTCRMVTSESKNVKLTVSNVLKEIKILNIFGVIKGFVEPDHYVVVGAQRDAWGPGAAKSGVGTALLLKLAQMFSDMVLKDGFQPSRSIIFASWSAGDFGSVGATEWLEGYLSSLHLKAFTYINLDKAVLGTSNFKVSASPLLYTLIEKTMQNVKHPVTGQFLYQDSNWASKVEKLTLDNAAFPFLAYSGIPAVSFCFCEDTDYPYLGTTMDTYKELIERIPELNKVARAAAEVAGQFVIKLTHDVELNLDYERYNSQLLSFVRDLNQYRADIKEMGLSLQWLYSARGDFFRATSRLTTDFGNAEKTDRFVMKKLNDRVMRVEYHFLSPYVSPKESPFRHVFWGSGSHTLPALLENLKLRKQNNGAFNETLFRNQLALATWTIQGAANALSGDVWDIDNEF
pKd: −log10 of the molar value.

smiles_input: CC[C@H](C)[C@@H]1NC(=O)[C@H](Cc2ccc(OC)cc2)NC(=O)[C@H](Cc2ccc(O)cc2)NC(=O)[C@H](CC(N)=O)NC(=O)[C@H](Cc2c[nH]c3ccc(Cl)cc23)NC(=O)[C@H](C(C)C)NC(=O)[C@H](Cc2ccc(F)cc2)N(C)C(=O)[C@H](C(C)C)NC(=O)[C@H](C)NC(=O)CSC[C@@H](C(N)=O)NC(=O)[C@H](Cc2ccc(O)cc2)N(C)C(=O)[C@H](Cc2ccccc2)NC(=O)[C@H](CCCCNC(=O)CCOCCOCCOCCOC)NC(=O)[C@H](CCCNC(=N)N)N(C)C(=O)[C@H]([C@@H](C)CC)NC1=O
pKd: 7.00 to 9.00

smiles_input: CC[C@H](C)[C@@H]1NC(=O)[C@H](Cc2ccc(O)cc2)NC(=O)[C@H](Cc2ccc(O)cc2)NC(=O)[C@H](CC(N)=O)NC(=O)[C@H](Cc2c[nH]c3ccc(Cl)cc23)NC(=O)[C@H](C(C)C)NC(=O)[C@H](Cc2ccc(F)cc2)N(C)C(=O)[C@H](C(C)C)NC(=O)[C@H](C)NC(=O)CSC[C@@H](C(=O)NCCOCCOCCOCCOCCC(N)=O)NC(=O)[C@H](Cc2ccc(O)cc2)N(C)C(=O)[C@H](Cc2ccccc2)NC(=O)[C@H](CCCNC(=N)N)NC(=O)[C@H](CCCNC(=N)N)NC(=O)[C@H]([C@@H](C)CC)NC1=O
pKd: > 9.00

smiles_input: CC[C@H](C)[C@@H]1NC(=O)[C@H](Cc2ccc(O)cc2)NC(=O)[C@H](Cc2ccc(O)cc2)NC(=O)[C@H](CC(N)=O)NC(=O)[C@H](Cc2c[nH]c3ccccc23)NC(=O)[C@H](C(C)C)NC(=O)[C@H](Cc2ccccc2)N(C)C(=O)[C@H](C(C)C)NC(=O)[C@H](C)NC(=O)CSC[C@@H](C(=O)NCC(=O)N[C@@H](CCCCN=[N+]=[N-])C(N)=O)NC(=O)[C@H](Cc2ccc(O)cc2)N(C)C(=O)[C@H](Cc2ccc(O)cc2)NC(=O)[C@H](CCCNC(=N)N)NC(=O)[C@H](CCCNC(=N)N)NC(=O)[C@H]([C@@H](C)CC)NC1=O
pKd: > 9.00

smiles_input: CC[C@H](C)[C@@H]1NC(=O)[C@H](Cc2ccc(OC)cc2)NC(=O)[C@H](Cc2ccc(O)cc2)NC(=O)[C@H](CC(N)=O)NC(=O)[C@H](Cc2c[nH]c3ccccc23)N(C)C(=O)[C@H](C(C)C)NC(=O)[C@H](Cc2ccc(F)cc2)N(C)C(=O)[C@H](C(C)C)NC(=O)[C@H](C)NC(=O)CSC[C@@H](C(=O)NCCOCCOCCOCCOCCC(N)=O)NC(=O)[C@H](Cc2ccc(O)cc2)N(C)C(=O)[C@H](Cc2ccccc2)NC(=O)[C@@H](CCCNC(=N)N)NC(=O)[C@H](CCCNC(=N)N)N(C)C(=O)[C@H]([C@@H](C)CC)NC1=O
pKd: 7.00 to 9.00

smiles_input: CC[C@H](C)[C@@H]1NC(=O)[C@H](Cc2ccc(OC)cc2)NC(=O)[C@H](Cc2ccc(O)cc2)NC(=O)[C@H](CC(N)=O)NC(=O)[C@H](Cc2c[nH]c3ccccc23)NC(=O)[C@H](C(C)C)NC(=O)[C@H](Cc2cccc(Cl)c2)N(C)C(=O)[C@H](C(C)C)NC(=O)[C@H](C)NC(=O)CSC[C@@H](C(=O)NCCOCCOCCOCCOCCC(N)=O)NC(=O)[C@H](Cc2ccc(O)cc2)N(C)C(=O)[C@H](Cc2ccncc2)NC(=O)[C@H](CCCNC(=N)N)NC(=O)[C@H](CCCNC(=N)N)NC(=O)[C@H]([C@@H](C)CC)NC1=O
pKd: > 9.00

smiles_input: CC[C@H](C)[C@@H]1NC(=O)[C@H](Cc2ccc(OC)cc2)NC(=O)[C@H](Cc2ccc(O)cc2)NC(=O)[C@H](CC(N)=O)NC(=O)[C@H](Cc2c[nH]c3ccccc23)NC(=O)[C@H](C(C)C)NC(=O)[C@H](Cc2ccccc2)N(C)C(=O)[C@H](C(C)C)NC(=O)[C@H](C)NC(=O)CSC[C@@H](C(=O)NCCOCCOCCOCCOCCC(N)=O)NC(=O)[C@H](Cc2ccc(O)cc2)N(C)C(=O)[C@H](Cc2ccccc2)NC(=O)[C@@H](CCCNC(=N)N)NC(=O)[C@H](CCCNC(=N)N)NC(=O)[C@H]([C@@H](C)CC)NC1=O
pKd: 7.00 to 9.00

smiles_input: CC[C@H](C)[C@@H]1NC(=O)[C@H](Cc2ccc(OC)cc2)NC(=O)[C@H](Cc2ccc(O)cc2)NC(=O)[C@H](CC(N)=O)NC(=O)[C@H](Cc2c[nH]c3ccc(Cl)cc23)NC(=O)[C@H](C(C)C)NC(=O)[C@H](Cc2ccccc2)N(C)C(=O)[C@H](C(C)C)NC(=O)[C@H](C)NC(=O)CSC[C@@H](C(=O)NCCOCCOCCOCCOCCC(N)=O)NC(=O)[C@H](Cc2ccc(O)cc2)N(C)C(=O)[C@H](Cc2ccc(O)cc2)NC(=O)[C@H](CCCNC(=N)N)NC(=O)[C@H](CCCNC(=N)N)NC(=O)[C@H]([C@@H](C)CC)NC1=O
pKd: > 9.00

smiles_input: CC[C@H](C)[C@@H]1NC(=O)[C@H](Cc2ccc(OCC(=O)O)cc2)NC(=O)[C@H](Cc2ccc(N)nc2)NC(=O)[C@H](CC(N)=O)NC(=O)[C@H](Cc2c[nH]c3ccccc23)NC(=O)[C@H](C(C)C)NC(=O)[C@H](Cc2cccc(Cl)c2)N(C)C(=O)[C@H](C(C)C)NC(=O)[C@H](C)NC(=O)CSC[C@@H](C(=O)NCCOCCOCCOCCOCCC(N)=O)NC(=O)[C@H](Cc2ccc(O)cc2)N(C)C(=O)[C@H](Cc2ccncc2)NC(=O)[C@H](CCCNC(=N)N)NC(=O)[C@H](CCCNC(=N)N)NC(=O)[C@H]([C@@H](C)CC)NC1=O
pKd: 7.00 to 9.00

# credit: patent US20260116920A1
